Attribution: ChEMBL document CHEMBL4622996

- METHOD_DESCRIPTION: Aqueous solubility of compound in HCl salt : water
- Format: physicochemical
EXPERIMENTAL_ENDPOINT: solubility (mg/mL)
Answers are plain numbers, in mg/mL.

Query: May I ask what solubility has been recorded for Cl.NC(=O)[C@@H]1CC[C@H](c2ccc(OCc3ccccc3F)cc2)N1 [RAXATRIGINE HYDROCHLORIDE] ?
Result: 16.3

---

- METHOD_DESCRIPTION: Aqueous solubility of the compound in FeSSIF
- Type: physicochemical
EXPERIMENTAL_ENDPOINT: solubility (µg/mL)
One number for each entry, in µg/mL.

Query: Data request, read-out solubility, for Cl.NC(=O)[C@@H]1CC[C@H](c2ccc(OCc3ccccc3F)cc2)N1 [RAXATRIGINE HYDROCHLORIDE]
Result: 6900

---

- METHOD_DESCRIPTION: Tmax in dog at 3 mg/kg, po
- Format: ADME, organism-based, Canis lupus familiaris
- RUN_CONDITIONS: in vivo
EXPERIMENTAL_ENDPOINT: Tmax (min)
Answers are plain numbers, in min.

Query: Request the reported Tmax associated with Cl.NC(=O)[C@@H]1CC[C@H](c2ccc(OCc3ccccc3F)cc2)N1 [RAXATRIGINE HYDROCHLORIDE]
Result: 45

---

- METHOD_DESCRIPTION: Half life in rat at 0.5 mg/kg, iv
- Format: ADME, organism-based
- RUN_CONDITIONS: in vivo
EXPERIMENTAL_ENDPOINT: half-life (min)
One number for each entry, in min.

Query: I have this compound here, Cl.NC(=O)[C@@H]1CC[C@H](c2ccc(OCc3ccccc3F)cc2)N1 [RAXATRIGINE HYDROCHLORIDE] , and I need its recorded half-life.
Result: 48

---

- METHOD_DESCRIPTION: Volume of distribution in steady state in dog at 0.5 mg/kg, iv
- Assay type: ADME, organism-based, Canis lupus familiaris
- RUN_CONDITIONS: in vivo, read-out: Vdss
EXPERIMENTAL_ENDPOINT: Vd (L/kg)
One number for each entry, in L/kg.

Query: Please give the measured Vd for this compound: Cl.NC(=O)[C@@H]1CC[C@H](c2ccc(OCc3ccccc3F)cc2)N1 [RAXATRIGINE HYDROCHLORIDE]
Result: 2

---

The following are reported IC50 results, target or system Voltage-gated inwardly rectifying potassium channel KCNH2 (Homo sapiens).

NC(=O)[C@H]1CCC[C@@H](c2ccc(OCc3cccc(F)c3)cc2)N1 (stereo in doubt) = 3.16 µM
NC(=O)[C@@H]1CC[C@@H](c2ccc(OCc3ccccc3F)cc2)N1 = 5.01 µM
NC(=O)[C@@H]1CC[C@H](c2ccc(OCc3cccc(F)c3)cc2)N1 = 3.16 µM
N#Cc1ccccc1Oc1ccc([C@H]2CC[C@@H](C(N)=O)N2)cc1 = 3.98 µM
C[C@@H](Oc1ccc([C@H]2CC[C@@H](C(N)=O)N2)cc1)c1ccccc1 = 3.98 µM
NC(=O)[C@@H]1CC[C@H](c2ccc(OCc3ccccc3F)cc2F)N1 = 12.6 µM
CN1[C@@H](c2ccc(OCc3ccccc3F)cc2)CC[C@H]1C(N)=O = 50.1 µM
NC(=O)[C@@H]1CC[C@H](c2ccc(Oc3cccc(F)c3)cc2)N1 = 7.94 µM
NC(=O)[C@H]1CC[C@H](c2ccc(OCc3ccccc3F)cc2)N1 = 6.31 µM
CNC(=O)[C@@H]1CC[C@H](c2ccc(OCc3ccccc3F)cc2)N1 = 25.1 µM

Record IC50 per entry; entries follow.
1. NC(=O)[C@@H]1CC[C@H](c2ccc(Oc3ccc(F)cc3)cc2)N1
2. NC(=O)[C@@H]1CC[C@H](c2ccc(OCc3ccc(F)cc3)cc2)N1

Result:
["5.01 µM", "7.94 µM"]

---

- METHOD_DESCRIPTION: Total blood clearance in dog blood at 0.5 mg/kg, iv
- Assay type: ADME, organism-based, Canis lupus familiaris
EXPERIMENTAL_ENDPOINT: clearance (mL/min/kg)
Give bare numbers, in mL/min/kg.

Query: Find the recorded clearance belonging to Cl.NC(=O)[C@@H]1CC[C@H](c2ccc(OCc3ccccc3F)cc2)N1 [RAXATRIGINE HYDROCHLORIDE] and report it.
Result: 12

---

- TARGET_OR_TEST_SYSTEM: Sodium channel protein type 3 subunit alpha (Homo sapiens, UniProt Q9NY46)
- Sequence (Q9NY46 whole entry, looked up): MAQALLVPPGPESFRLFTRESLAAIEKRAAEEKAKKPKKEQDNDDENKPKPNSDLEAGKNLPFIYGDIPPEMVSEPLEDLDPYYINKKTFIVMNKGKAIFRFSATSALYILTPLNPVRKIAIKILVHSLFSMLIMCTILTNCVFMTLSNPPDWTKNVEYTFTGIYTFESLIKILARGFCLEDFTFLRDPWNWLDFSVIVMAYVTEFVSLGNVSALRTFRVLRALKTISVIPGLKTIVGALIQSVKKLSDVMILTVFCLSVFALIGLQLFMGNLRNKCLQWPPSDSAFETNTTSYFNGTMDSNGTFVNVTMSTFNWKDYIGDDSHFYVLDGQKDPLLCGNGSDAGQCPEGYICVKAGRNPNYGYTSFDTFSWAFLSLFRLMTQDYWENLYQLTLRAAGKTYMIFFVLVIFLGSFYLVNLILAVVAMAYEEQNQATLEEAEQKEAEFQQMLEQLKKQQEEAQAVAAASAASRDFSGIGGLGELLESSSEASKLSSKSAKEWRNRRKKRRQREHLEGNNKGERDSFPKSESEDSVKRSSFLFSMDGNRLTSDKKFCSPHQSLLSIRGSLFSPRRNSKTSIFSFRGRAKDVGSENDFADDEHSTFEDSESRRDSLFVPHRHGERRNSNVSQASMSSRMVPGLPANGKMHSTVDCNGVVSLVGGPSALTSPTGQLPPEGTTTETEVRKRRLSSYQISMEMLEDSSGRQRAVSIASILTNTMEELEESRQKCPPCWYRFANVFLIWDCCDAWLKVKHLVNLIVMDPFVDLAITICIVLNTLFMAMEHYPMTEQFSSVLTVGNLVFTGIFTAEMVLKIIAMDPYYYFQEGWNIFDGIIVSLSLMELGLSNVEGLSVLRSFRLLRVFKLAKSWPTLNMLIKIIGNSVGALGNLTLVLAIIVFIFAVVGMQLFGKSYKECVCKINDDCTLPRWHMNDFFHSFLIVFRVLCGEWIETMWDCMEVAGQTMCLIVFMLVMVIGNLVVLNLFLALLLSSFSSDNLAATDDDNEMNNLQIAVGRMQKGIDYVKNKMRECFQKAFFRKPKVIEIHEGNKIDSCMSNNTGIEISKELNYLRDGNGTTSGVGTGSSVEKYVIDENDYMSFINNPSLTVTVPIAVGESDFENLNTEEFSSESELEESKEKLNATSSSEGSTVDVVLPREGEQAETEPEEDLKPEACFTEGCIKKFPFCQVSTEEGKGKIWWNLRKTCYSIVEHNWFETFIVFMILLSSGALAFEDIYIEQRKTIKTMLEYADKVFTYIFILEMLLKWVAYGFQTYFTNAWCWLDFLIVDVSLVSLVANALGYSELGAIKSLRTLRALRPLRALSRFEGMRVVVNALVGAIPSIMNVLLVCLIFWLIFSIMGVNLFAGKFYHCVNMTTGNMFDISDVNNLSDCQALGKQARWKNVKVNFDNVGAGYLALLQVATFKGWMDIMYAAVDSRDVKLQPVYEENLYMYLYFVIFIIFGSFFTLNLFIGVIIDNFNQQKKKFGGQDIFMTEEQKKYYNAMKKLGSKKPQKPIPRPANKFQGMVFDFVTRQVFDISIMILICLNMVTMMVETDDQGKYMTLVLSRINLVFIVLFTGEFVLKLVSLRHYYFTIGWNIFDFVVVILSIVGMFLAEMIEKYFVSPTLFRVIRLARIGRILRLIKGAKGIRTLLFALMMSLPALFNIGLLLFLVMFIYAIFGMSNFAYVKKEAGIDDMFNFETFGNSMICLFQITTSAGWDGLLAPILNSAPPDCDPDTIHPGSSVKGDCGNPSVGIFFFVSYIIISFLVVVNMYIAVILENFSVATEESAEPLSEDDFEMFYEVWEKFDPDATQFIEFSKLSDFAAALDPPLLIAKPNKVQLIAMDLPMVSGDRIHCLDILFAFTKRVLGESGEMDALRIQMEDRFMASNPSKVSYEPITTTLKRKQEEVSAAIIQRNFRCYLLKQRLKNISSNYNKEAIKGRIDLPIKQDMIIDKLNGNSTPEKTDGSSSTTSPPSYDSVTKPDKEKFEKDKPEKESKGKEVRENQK
- METHOD_DESCRIPTION: Inhibition of Nav1.3 (unknown origin) expressed in HEK293 cells assessed as 15% inhibition of sodium current incubated for 3 to 3.5 mins by electrophysiology assay
- Format: cell-based
I'd appreciate it if you could supply log(activity) values for the items below.
Numbers only.

Solved entries:
O=C1NCCC1NCc1ccc(OCc2ccccc2F)cc1 (centres undefined) = -4.8
NC(=O)[C@@H]1CC[C@@H](c2ccc(OCc3ccccc3F)cc2)N1 = -5.5
NC(=O)[C@H]1CCC[C@@H](c2ccc(OCc3cccc(F)c3)cc2)N1 (stereo in doubt) = -5.4

# input for lookup
Query: Entry NC(=O)CNCc1ccc(OCc2ccccc2F)cc1 : reported log(activity) = ?
Result: -5.4

---

- METHOD_DESCRIPTION: Cmax in monkey at 3 mg/kg, po
- Type: ADME, organism-based, Macaca mulatta
- Design: dose 3 mg/kg, route oral
- RUN_CONDITIONS: rhesus monkey, in vivo
EXPERIMENTAL_ENDPOINT: Cmax (ng/mL)
One number for each entry, in ng/mL.

Query: Field request: Cmax | item: Cl.NC(=O)[C@@H]1CC[C@H](c2ccc(OCc3ccccc3F)cc2)N1 [RAXATRIGINE HYDROCHLORIDE]
Result: 730

---

- TARGET_OR_TEST_SYSTEM: Voltage-gated inwardly rectifying potassium channel KCNH2 (Homo sapiens)
- Sequence (Q12809 whole entry): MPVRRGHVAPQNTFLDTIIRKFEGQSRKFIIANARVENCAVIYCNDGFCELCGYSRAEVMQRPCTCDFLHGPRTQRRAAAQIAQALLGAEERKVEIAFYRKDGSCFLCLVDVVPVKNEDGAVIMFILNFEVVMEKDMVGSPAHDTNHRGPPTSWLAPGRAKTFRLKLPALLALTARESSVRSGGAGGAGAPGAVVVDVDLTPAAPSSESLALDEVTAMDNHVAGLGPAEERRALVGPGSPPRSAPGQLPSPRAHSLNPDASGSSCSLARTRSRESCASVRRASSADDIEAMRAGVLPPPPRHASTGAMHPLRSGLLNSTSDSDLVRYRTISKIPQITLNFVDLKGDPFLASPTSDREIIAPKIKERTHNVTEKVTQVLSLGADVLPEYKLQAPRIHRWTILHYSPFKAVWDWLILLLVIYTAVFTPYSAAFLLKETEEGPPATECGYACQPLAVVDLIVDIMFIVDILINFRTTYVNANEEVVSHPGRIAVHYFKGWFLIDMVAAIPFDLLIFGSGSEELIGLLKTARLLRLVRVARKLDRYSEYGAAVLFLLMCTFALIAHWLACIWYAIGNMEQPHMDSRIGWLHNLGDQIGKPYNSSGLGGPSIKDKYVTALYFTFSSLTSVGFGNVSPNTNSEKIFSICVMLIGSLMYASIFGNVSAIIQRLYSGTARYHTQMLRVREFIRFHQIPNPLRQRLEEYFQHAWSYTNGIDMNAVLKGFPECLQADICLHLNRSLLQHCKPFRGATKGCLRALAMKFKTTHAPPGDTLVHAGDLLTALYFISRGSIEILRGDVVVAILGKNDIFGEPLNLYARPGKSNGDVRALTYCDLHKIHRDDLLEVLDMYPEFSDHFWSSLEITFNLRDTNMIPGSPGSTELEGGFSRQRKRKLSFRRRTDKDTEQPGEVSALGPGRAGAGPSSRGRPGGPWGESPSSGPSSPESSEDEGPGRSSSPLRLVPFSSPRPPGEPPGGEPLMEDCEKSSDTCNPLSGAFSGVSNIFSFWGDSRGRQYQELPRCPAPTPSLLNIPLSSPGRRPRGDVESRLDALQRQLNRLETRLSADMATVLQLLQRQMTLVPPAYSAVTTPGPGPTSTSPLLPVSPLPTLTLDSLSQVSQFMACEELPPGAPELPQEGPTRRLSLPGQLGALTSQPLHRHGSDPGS
- METHOD_DESCRIPTION: Inhibition of human ERG
- RUN_CONDITIONS: human
EXPERIMENTAL_ENDPOINT: inhibition (INH)

C[C@H](NC1CCCc2cc(OCc3ccccc3F)ccc21)C(N)=O (some centres undefined) = Active
NC(=O)[C@@H]1CCCN1Cc1ccc(OCc2ccccc2F)cc1 = Active
NC(=O)CNC1CCc2cc(OCc3ccccc3F)ccc21 (centres undefined) = Active
C[C@@H](C(N)=O)N1CCCC1c1ccc(OCc2ccccc2F)cc1 (some centres undefined) = Active

---

- METHOD_DESCRIPTION: Oral bioavailability in monkey at 3 mg/kg
- Type: ADME, organism-based, Macaca mulatta
- RUN_CONDITIONS: rhesus monkey, in vivo
EXPERIMENTAL_ENDPOINT: bioavailability (%)
Numbers only, in %.

Query: For the compound Cl.NC(=O)[C@@H]1CC[C@H](c2ccc(OCc3ccccc3F)cc2)N1 [RAXATRIGINE HYDROCHLORIDE] , what bioavailability is on record?
Result: 42

---

- METHOD_DESCRIPTION: Apparent permeability in dog MDCK cells at pH 7.4
- Format: ADME, cell-based, Canis lupus familiaris
EXPERIMENTAL_ENDPOINT: Papp
Answer format reminder: number followed by unit.

Query: Which Papp value is on record for Cl.NC(=O)[C@@H]1CC[C@H](c2ccc(OCc3ccccc3F)cc2)N1 [RAXATRIGINE HYDROCHLORIDE] ?
Result: 38.6 ×10⁻⁶ cm/s

---

- METHOD_DESCRIPTION: Plasma concentration in rat after measuring the spontaneous locomotor activity at 60 mg/kg, po measured after 60 mins post dose
- Type: ADME, organism-based
EXPERIMENTAL_ENDPOINT: concentration at 1 h (ng/mL)
One number for each entry, in ng/mL.

Query: // concentration at 1 h lookup, key: Cl.NC(=O)[C@@H]1CC[C@H](c2ccc(OCc3ccccc3F)cc2)N1 [RAXATRIGINE HYDROCHLORIDE]
Result: 13100

---

- METHOD_DESCRIPTION: Fraction unbound in rat blood
- Type: ADME, tissue-based
EXPERIMENTAL_ENDPOINT: fraction unbound

Query: Value lookup for fraction unbound; key = N#Cc1ccccc1Oc1ccc([C@H]2CC[C@@H](C(N)=O)N2)cc1
Result: 0.12

---

- TARGET_OR_TEST_SYSTEM: Cytochrome P450 1A2 (Homo sapiens, UniProt P05177)
- Sequence (P05177 whole entry): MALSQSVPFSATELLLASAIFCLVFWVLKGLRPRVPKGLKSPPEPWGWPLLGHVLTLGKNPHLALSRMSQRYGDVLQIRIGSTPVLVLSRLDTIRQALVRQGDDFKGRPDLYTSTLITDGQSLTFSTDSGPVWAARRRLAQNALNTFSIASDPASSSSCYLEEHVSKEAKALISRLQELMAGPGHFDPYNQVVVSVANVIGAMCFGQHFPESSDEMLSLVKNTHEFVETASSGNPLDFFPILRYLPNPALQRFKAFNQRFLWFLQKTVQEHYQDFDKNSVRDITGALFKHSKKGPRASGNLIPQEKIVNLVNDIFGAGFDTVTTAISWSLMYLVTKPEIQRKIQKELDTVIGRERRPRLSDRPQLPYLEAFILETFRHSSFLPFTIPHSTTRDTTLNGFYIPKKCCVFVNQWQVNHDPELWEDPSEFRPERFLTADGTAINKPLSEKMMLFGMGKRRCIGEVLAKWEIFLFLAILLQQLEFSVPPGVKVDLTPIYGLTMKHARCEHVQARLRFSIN
EXPERIMENTAL_ENDPOINT: IC50

Query: Param item = Cl.NC(=O)[C@@H]1CC[C@H](c2ccc(OCc3ccccc3F)cc2)N1 [RAXATRIGINE HYDROCHLORIDE] ; retrieve measured IC50.
Result: 13 µM
